Numbers sourced from patent US20120077731A1.

Target: T1, Cyno plasma sIL-6R (cynomolgus monkey, UniProt A0A2K5WN54 60-396)
T1 construct: also called cynomolgus sIL-6R
T1 sequence: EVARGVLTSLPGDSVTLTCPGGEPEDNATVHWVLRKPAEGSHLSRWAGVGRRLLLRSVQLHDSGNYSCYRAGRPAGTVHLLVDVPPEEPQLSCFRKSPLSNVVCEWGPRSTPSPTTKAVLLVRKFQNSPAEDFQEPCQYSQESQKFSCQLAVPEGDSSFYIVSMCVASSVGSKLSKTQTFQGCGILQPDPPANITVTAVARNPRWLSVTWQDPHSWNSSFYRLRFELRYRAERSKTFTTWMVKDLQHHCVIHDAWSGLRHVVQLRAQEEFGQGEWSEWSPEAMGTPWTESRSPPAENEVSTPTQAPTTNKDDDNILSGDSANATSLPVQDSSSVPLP
Experiment: plasma potency ELISA, cyno plasma + human IL-6 50 ng/mL; sIL-6R captured on BN-12, bound IL-6 detected; blocked ligand IL-6
Give IC50 (read off the curve) for every item shown.

- binder: "IL6R201 (VHH, also called tagless version of IL6R75; 16R201/75) VHH: EVQLVESGGGLVQPGGSLRLSCAASGFTFSDYDIGWFRQAPGKGREGVSGISSSDGNTYYADSVKGRFTISRDNAKNTLYLQMNSLRPEDTAVYYCAAEPPDSSWYLDGSPEFFKYWGQGTLVTVSS"
  IC50 (read off the curve): "~0.6 nM"
- binder: "Reference IgG (antibody, V domains shown, Full-length human IgG1 produced in CHO cells) VH: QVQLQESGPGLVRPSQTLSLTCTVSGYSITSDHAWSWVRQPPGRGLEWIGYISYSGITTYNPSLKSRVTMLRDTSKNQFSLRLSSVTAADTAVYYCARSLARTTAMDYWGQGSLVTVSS VL: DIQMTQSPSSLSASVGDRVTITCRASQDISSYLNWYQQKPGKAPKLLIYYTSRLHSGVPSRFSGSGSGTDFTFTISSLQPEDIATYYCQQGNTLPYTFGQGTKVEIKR"
  IC50 (read off the curve): "~0.01 nM"
- binder: "IL6R65 (VHH, also called ILR65; parent Nanobody) VHH: EVQLVESGGGLVQPGGSLRLSCAASGSIFKVNAMGWYRQAPGKGRELVAGIISGGSTNYADSVKGRFTISRDNAKNTLYLQMNSLRPEDTAVYYCAFVTTNSDYDLGRDYWGQGTLVTVSS"
  IC50 (read off the curve): "~0.1 nM"

Please examine the following record next.
Consider the binder Reference Fab (Fab, V domains shown, Built from RVLa and RVHf of EP 0628639; expressed in E. coli periplasm) VH: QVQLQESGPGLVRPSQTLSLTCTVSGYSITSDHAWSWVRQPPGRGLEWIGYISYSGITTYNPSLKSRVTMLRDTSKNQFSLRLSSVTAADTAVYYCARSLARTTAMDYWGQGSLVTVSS VL: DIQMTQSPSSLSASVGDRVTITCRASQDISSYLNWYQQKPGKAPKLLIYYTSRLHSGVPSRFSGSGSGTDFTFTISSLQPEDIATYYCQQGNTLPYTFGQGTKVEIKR . State its measured IC50 (read off the curve).
~0.1 nM
